Where these numbers come from: patent US20170052184A1

studySystem: T1, HCV Core1-169 (hepatitis C virus (HCV-1), UniProt P26664 1-169)
T1 sequence: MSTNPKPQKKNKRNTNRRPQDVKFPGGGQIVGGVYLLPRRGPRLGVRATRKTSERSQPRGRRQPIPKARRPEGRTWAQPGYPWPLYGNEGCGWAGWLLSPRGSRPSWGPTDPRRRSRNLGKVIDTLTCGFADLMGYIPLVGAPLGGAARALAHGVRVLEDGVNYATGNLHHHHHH
protocolDescription: SPR sandwich, capture mAb C11-3
measureName: expected percent binding (%)

{"binder": "HCV 208B-556 (antibody, V domains shown) VH: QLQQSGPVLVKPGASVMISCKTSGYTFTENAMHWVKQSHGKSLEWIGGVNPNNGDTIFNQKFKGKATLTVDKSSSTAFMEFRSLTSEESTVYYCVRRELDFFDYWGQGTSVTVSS VL: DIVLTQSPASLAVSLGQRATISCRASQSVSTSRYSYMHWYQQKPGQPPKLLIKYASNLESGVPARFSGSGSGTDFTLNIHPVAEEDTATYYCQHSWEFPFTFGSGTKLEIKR", "measureName": "expected percent binding", "comparisonSymbol": "=", "measuredNumber": 11.5}
{"binder": "HCV 208A-210 (antibody, V domains shown) VH: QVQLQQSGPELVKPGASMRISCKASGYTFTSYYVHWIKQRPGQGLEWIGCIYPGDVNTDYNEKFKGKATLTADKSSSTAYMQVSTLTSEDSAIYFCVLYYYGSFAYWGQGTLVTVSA VL: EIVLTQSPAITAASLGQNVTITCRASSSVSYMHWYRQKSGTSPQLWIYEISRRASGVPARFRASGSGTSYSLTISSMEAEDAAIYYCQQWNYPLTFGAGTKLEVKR", "measureName": "expected percent binding", "comparisonSymbol": "=", "measuredNumber": 1.2}
{"binder": "HCV 208B-822 (antibody, V domains shown) VH: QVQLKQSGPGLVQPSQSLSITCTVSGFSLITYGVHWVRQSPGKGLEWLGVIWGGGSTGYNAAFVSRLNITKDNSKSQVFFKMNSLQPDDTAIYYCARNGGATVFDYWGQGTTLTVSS VL: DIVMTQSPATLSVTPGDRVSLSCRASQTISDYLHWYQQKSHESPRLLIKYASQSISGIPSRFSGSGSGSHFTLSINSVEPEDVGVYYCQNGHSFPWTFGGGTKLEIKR", "measureName": "expected percent binding", "comparisonSymbol": "≤", "measuredNumber": 1}
{"binder": "HCV 208A-830 (antibody, V domains shown) VH: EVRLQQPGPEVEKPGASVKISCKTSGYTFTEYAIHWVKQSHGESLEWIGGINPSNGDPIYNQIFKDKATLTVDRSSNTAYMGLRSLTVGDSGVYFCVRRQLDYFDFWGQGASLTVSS VL: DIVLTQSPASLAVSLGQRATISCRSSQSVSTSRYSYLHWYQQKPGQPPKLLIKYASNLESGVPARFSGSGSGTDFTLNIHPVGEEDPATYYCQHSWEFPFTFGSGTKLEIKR", "measureName": "expected percent binding", "comparisonSymbol": "=", "measuredNumber": 11.9}
{"binder": "HCV 208B-612 (antibody, V domains shown) VH: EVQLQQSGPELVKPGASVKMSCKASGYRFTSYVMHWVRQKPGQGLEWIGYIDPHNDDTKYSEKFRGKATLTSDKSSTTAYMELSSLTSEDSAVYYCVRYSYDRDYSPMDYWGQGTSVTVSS VL: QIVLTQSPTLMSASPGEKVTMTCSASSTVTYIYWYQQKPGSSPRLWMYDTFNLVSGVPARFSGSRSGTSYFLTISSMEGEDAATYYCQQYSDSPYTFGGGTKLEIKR", "measureName": "expected percent binding", "comparisonSymbol": "=", "measuredNumber": 3.8}
{"binder": "HCV 208B-178 (antibody, V domains shown) VH: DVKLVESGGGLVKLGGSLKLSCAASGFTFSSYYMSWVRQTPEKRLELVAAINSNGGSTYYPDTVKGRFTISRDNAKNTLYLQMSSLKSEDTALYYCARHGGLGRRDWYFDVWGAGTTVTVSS VL: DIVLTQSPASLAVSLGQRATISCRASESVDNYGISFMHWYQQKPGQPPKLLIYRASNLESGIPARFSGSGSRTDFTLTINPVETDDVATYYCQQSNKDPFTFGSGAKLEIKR", "measureName": "expected percent binding", "comparisonSymbol": "≤", "measuredNumber": 1}
{"binder": "HCV 208A-442 (antibody, V domains shown) VH: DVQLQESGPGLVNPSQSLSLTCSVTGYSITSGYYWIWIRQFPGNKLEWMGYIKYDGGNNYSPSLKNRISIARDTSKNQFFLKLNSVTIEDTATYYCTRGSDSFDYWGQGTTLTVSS VL: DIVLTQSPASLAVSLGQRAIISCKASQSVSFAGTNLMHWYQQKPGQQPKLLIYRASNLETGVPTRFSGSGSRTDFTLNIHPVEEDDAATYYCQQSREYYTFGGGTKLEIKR", "measureName": "expected percent binding", "comparisonSymbol": "≤", "measuredNumber": 1}
{"binder": "HCV 208A-605 (antibody, V domains shown) VH: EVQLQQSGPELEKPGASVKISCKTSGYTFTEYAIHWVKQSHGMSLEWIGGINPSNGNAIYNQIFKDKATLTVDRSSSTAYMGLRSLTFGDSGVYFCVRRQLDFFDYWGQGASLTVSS VL: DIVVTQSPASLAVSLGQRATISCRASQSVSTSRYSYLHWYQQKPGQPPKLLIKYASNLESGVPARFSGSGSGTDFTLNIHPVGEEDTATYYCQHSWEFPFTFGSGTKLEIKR", "measureName": "expected percent binding", "comparisonSymbol": "=", "measuredNumber": 15.9}
{"binder": "HCV 208B-517 (antibody, V domains shown) VH: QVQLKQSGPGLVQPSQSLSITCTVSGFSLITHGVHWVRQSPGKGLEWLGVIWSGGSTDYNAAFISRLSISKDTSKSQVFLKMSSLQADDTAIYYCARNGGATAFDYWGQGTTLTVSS VL: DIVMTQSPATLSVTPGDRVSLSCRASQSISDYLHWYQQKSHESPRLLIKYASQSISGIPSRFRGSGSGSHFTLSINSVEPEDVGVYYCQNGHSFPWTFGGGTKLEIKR", "measureName": "expected percent binding", "comparisonSymbol": "≤", "measuredNumber": 1}
{"binder": "HCV 208B-672 (antibody, V domains shown) VH: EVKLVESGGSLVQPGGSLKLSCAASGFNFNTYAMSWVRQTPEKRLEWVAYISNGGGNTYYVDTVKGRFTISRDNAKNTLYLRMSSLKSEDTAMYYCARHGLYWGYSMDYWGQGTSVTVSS VL: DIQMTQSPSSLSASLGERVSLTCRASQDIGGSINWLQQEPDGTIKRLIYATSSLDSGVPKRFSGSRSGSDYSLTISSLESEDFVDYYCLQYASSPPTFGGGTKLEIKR", "measureName": "expected percent binding", "comparisonSymbol": "=", "measuredNumber": 2.6}
